- Assay System: TDP-43 (Homo sapiens, UniProt Q13148 1-414)
- Sequence (Q13148 whole entry): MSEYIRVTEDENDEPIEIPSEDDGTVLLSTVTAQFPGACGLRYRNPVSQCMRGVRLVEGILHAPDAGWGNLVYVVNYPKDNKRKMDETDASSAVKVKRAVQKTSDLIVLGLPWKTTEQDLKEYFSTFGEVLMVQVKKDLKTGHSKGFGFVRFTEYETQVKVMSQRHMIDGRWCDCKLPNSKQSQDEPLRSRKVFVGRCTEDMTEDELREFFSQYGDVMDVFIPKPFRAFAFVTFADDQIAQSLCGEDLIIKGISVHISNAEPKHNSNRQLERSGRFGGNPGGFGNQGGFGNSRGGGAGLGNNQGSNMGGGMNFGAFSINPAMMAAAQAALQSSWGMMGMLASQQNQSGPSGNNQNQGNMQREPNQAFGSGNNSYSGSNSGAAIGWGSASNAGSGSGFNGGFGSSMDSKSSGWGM
- Assay Notes: RNA Bind-n-Seq with designed 260-mer pool; 25 mM Tris-HCl, 150 mM KCl, 3 mM MgCl2, BSA (printed 500 mg/mL), 20 units/mL SUPERase IN; pH not stated; 500 nM RNA pool, 1 h, 4 C; TDP-43 5, 50, 500 nM; high values mean tight binding
- Measurement Context: protein: recombinant; tags: SBP (GST cleaved off with PreScission; pGEX-GST-SBP)
Over roughly 9,900 sequences, “r (bound/input frequency ratio)” has its median near 0.7; the highest 2% begin near 6.5. What follows is part of a selection rich in the highest values, with near analogues and random picks from the rest.
binding signal listing for selected binders.

Req: Would you kindly share the measured binding signal for ENSMUSG00000029636.424|Wasf3 (ssRNA) RNA: GGGAGUUCUACAGUCCGACGAUCGCUUCGAUAUCCGCAUGCUAUGGGUUAGGUGGGUAAGUAGCUAGGUGGAUGGGUGGGUGGAUACAUGGAUGAGUGGAUGGGUGGAUUGGUGGGUGAGUGGAUAGGUGAAUGGAUGAUAGGUGGUGGAUGGUUGAGUGGGUGGAUUCAUGAUGGAUGGAUGGAUGGAUGGAUGGAUGGAUGGAUGGAUGAGUGGAUGGAUAAUAGGUUGAUGGGUGGAUAGGUAGAUGAGUGAAUAGAUAGAUAUAGAUCAGUGGGAGGAUUGGAAAGUAGGUGAAUGAAUCUCUUGCGGUCGCACUAGUGUGGAAUUCUCGGGUGUCAAGG ?
Resp: 1.66 R (bound/input frequency ratio)

Req: Would you kindly share the measured binding signal for ENSMUSG00000061578.140|Ksr2 (ssRNA) RNA: GGGAGUUCUACAGUCCGACGAUCGCUUCGAUAUCCGCAUGCUAGGCUGUGGCAAGAGAGUUCUGGUGUGUUCUCUCUGUGGGGCUAGCAAUGCCGGGGUUAAGUUCUCCCUCGGUGAUGGAGACGGUCCUGGGUAUGCAUGAUGGGUUACAUGGGUGUGUGUGUGUGUGUAACUGUUUACAAUGGUCUCCCUGCCUCUCACGGGCUGUGUUCCAGGAGAAUGCACAUAGAGAGGUUCUGUGGUCUCUGCUGUCGCCUGGUGCUGAAUCCUGAGUGGUUUCCCCACUGAGGACCCUGUGACCCUCUCUUGCGGUCGCACUAGUGUGGAAUUCUCGGGUGUCAAGG ?
Resp: 5.07 R (bound/input frequency ratio)

Req: Would you kindly share the measured binding signal for ENSMUSG00000004113.365|Cacna1b (ssRNA) RNA: GGGAGUUCUACAGUCCGACGAUCGCUUCGAUAUCCGCAUGCUAUAUACAAAGGCACAAUACCCUGAAACUUUAACAGAGUAUUUUAUUCCAGUAGGGUAAAAUUAAACGGGACUCUUGGACUGCGCAUGUGACUGCACCCACGUUGCAACAGAGAAGGAUGUGCAUUUUGAUACUGAUGUUCUGUCUCUGUUCCAGCCCCAGCCCCCUUUUCUCUUGAGUGUUGAAUGUAUACAUUCUGUGUGGAACUACAGCUGCCUCAGACAAUCCUGGGUUGGGAAUCAUCUUUAUCCCACAUCAACAUACUCUUGCGGUCGCACUAGUGUGGAAUUCUCGGGUGUCAAGG ?
Resp: 0.216 R (bound/input frequency ratio)

Req: Would you kindly share the measured binding signal for ENSMUSG00000043670.83|Diras1 (ssRNA) RNA: GGGAGUUCUACAGUCCGACGAUCGCUUCGAUAUCCGCAUGCUAAUCCCAGUCAGGCCCAGAGAGGUUACCUUGCCUCUCCAUCUCUGUCCCUGUGUGCCCAGCCAUGCCCACUGUCCCUGUCCCUCACAUUCUAUCACUGUGACCUCUGGGGAGUGCCCAUUGACCUCAUCUUCCUUCACUAAUAUCUUAUUUCUUUCACCUGAUCCUGUCCUUUCCCCGUGACCUCUGACCUGUGGCCUUCCCUGGGUCCAGAACACCCCUGUCCUCUCCUGUCUGCACACCAGGGUGGAUGGGCCCGAGGGCUCUUGCGGUCGCACUAGUGUGGAAUUCUCGGGUGUCAAGG ?
Resp: 2.21 R (bound/input frequency ratio)
